Target: ΔF508-CFTR (Homo sapiens, UniProt P13569, DEL508-508)
Construct: host or cells: CFBE41o-, doxycycline-inducible
Sequence (P13569 with tags, fused parts or gaps DEL508-508): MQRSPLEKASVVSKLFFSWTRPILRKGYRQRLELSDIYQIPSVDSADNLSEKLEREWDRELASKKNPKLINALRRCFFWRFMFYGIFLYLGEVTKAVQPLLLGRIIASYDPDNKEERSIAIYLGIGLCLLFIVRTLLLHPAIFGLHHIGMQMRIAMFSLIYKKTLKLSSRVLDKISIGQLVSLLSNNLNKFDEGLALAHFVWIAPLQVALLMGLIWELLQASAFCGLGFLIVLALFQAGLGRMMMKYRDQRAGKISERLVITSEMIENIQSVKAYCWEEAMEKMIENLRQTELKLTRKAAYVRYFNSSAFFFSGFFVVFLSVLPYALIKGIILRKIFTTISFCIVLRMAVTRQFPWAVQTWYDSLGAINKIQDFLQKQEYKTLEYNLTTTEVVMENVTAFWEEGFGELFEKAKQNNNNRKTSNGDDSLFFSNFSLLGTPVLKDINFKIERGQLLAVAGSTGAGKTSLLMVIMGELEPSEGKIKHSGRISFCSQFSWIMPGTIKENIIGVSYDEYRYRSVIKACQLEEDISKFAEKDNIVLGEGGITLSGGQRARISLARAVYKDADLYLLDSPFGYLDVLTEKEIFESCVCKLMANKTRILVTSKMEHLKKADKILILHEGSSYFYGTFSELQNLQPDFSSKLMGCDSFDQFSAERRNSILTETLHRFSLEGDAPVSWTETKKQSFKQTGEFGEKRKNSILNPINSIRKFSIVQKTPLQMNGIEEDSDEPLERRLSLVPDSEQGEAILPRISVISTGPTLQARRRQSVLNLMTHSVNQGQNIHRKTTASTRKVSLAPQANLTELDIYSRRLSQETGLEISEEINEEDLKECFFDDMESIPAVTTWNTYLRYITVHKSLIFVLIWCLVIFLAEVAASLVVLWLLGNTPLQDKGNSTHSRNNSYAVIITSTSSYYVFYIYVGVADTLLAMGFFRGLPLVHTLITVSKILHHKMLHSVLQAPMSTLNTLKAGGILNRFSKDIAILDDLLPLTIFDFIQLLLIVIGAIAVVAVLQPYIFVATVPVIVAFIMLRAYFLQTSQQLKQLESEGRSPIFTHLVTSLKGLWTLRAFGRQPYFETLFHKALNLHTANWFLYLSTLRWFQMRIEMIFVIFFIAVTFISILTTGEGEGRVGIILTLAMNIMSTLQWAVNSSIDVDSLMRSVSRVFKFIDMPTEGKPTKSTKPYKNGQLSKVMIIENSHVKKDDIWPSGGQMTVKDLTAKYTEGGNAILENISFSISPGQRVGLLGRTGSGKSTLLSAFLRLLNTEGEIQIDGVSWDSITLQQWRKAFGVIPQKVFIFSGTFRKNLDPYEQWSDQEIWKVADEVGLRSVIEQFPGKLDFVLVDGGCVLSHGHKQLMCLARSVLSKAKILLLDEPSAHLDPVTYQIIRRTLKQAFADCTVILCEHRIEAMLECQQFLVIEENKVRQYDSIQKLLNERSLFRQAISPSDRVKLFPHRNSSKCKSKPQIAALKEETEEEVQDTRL
Assay: CFTR cell surface levels using HRP-tagged ΔF508-CFTR expressing CFBE cells, in the presence of a co-corrector
Assay type: cell-based
Settings: HRP-tagged ΔF508-CFTR expressing CFBE cells, in the presence of 3 μM co-corrector
Text: Measuring CFTR Cell Surface Levels Using HRP-Tagged AF508-CFTR Expressing CFBE Cells The HRP-tagged AF508-CFTR cell assay measures the expression of CFTR-ΔF508 at the plasma membrane. […] When HRP-tagged AF508-CFTR is present at the plasma membrane, the HRP enzyme activity can be measured. The amount of CFTR-ΔF508 that can be rescued to the plasma membrane is correlated with the amount of functional enzyme that can be measured. […]
% Activation of 300% or higher: Fulfilled. Under 300%: Not fulfilled.

Record O=C(O)c1cc(N2CCN(CCOCCO)CC2)c2c(C3CCC3)nn(-c3ccccc3)c2n1 [compound 714] ; criterion: % Activation no lower than 300%. Met?
Not fulfilled

Now the compound CC(=O)N1CC(c2nn(-c3ccccc3)c3nc(C(=O)O)cc(-c4ccc(N5CCOCC5)cc4)c23)C1 [compound 78]
Not fulfilled

// query: Cc1cccc(-n2nc(C(C)C)c3c(N4CCC(C#N)C4)cc(C(=O)O)nc32)c1 (centres unmarked) [compound 218]
Fulfilled

Follow-up item: CN(C)C[C@H](F)C1CCN(c2cc(C(=O)O)nc3c2c(C2CCC2)nn3-c2ccccc2)CC1 [compound 455]
Fulfilled

And the next one, CCN(CC)CC1(N2CC(Oc3cc(C(=O)O)nc4c3c(C3CCC3)nn4-c3ccccc3)C2)COC1 [compound 646] ?
Not fulfilled

Next entry: CC(C)c1nn(-c2cccc(N3CC(C)(C)C3)c2)c2nc(C(=O)O)cc(-c3ccc(N4CCOCC4)cc3)c12 [compound 160]
Fulfilled

Next compound up: O=C(O)c1cc(OCCCN2CCCCC2)c2c(C3CCC3)nn(-c3ccccc3)c2n1 [compound 642]
Not fulfilled

Another: CC1(COc2cc(C(=O)O)nc3c2c(C2CCC2)nn3-c2ccccc2)CC1 [compound 630]
Fulfilled

* * *

target: ΔF508-CFTR (Homo sapiens, UniProt P13569, DEL508-508); construct: host or cells: CFBE41o-, doxycycline-inducible; assay: CFTR cell surface levels using HRP-tagged ΔF508-CFTR expressing CFBE cells, in the presence of a co-corrector; format: cell-based; conditions: HRP-tagged ΔF508-CFTR expressing CFBE cells, in the presence of 3 μM co-corrector; read-out: EC50
PARAMETER: pEC50
Note: pEC50 values are expressed as the negative base-10 logarithm of concentration in M.

Sample Cc1cccc(-n2nc(C(C)C)c3c(-c4ccc(N5CCC(C#N)CC5)nc4)cc(C(=O)O)nc32)c1 — what was its pEC50?
6.27

Queued: Cc1nn(-c2ccccc2)c2nc(C(=O)O)cc(N3CCC(F)(F)C3)c12
5.60

Also check CC(C)c1nn(-c2cccc(F)c2)c2nc(C(=O)O)cc(-c3cnc(N(C)C4CCOCC4)nc3)c12
6.51

Another compound to check: CC(C)c1nn(C2CCCC2)c2nc(C(=O)O)cc(-c3cnc(N(C)C)nc3)c12
5.90

Let us now turn to CC(C)c1nn(-c2ccc(F)cc2)c2nc(C(=O)O)cc(N3CCC4(CCCO4)CC3)c12
6.18

Entry to check: Cc1nn(-c2ccccc2)c2nc(C(=O)O)cc(-c3ccc(N4CCOCC4)nc3)c12
5.67

Quick one: CC(C)N1CCN(c2ccc(-c3cc(C(=O)O)nc4c3c(C3CCC3)nn4C3CCCCC3)cn2)CC1
5.95

Thanks! And CC(C)c1nn(-c2cccc(N3CCOCC3)c2)c2nc(C(=O)O)cc(-c3cnc(N4CCC(C#N)CC4)nc3)c12 ?
6.07

Okay, and Cc1nn(-c2ccccc2)c2nc(C(=O)O)cc(-c3ccc(N4CCCC(O)C4)cc3)c12 (stereo not shown) ?
5.99

Another compound: CC1(C)OC[C@@H](COc2cc(C(=O)O)nc3c2c(C2CCC2)nn3-c2ccccc2)O1
6.45

Also Cc1cccc(-n2nc(C(C)C)c3c(N4CCC5C(CCN5C(=O)OC(C)(C)C)C4)cc(C(=O)O)nc32)c1 (stereo not shown) , if possible.
6.43

How about this compound: Cc1cccc(-n2nc(C(C)C)c3c(N4CCC(C#N)CC4)cc(C(=O)O)nc32)c1
6.32

Query Cc1cccc(-n2nc(C(C)C)c3c(N4CC(F)C4)cc(C(=O)O)nc32)c1 next
5.60

How about this compound: COCCCN1CCN(c2cc(C(=O)O)nc3c2c(C)nn3-c2ccccc2)CC1
5.60

Next compound: Cc1nn(-c2ccccc2)c2nc(C(=O)O)cc(-c3ccc(N(C)C4CCC4)cc3)c12
5.89

Repeat for the following compound: Cc1cccc(-n2nc(C(C)C)c3c(N4CCCC4)cc(C(=O)O)nc32)c1
5.60

* * *

biological target: ΔF508-CFTR (Homo sapiens, UniProt P13569, DEL508-508); construct: host or cells: CFBE41o-, doxycycline-inducible; experiment: CFTR cell surface levels using HRP-tagged ΔF508-CFTR expressing CFBE cells, in the presence of a co-corrector; format: cell-based; conditions: HRP-tagged ΔF508-CFTR expressing CFBE cells, in the presence of 3 μM co-corrector; read-out: EC50
PARAMETER: EC50 (nM)
Field: numeric (nM). Do not append units.

Form field - read-out: EC50; system: ΔF508-CFTR (Homo sapiens, UniProt P13569, DEL508-508); submitted item: O=C(O)c1cc(N2CCC(N3CCOCC3)CC2)c2c(C3CCC3)nn(-c3ccnc(C4CCOCC4)c3)c2n1 [compound 819]
3330

One more compound: O=C(O)c1cc(N2CC3(CCCOC3)C2)c2c(C3CCC3)nn(-c3ccccc3)c2n1 [compound 720]
356

Same for CO[C@H]1CC[C@@H](Oc2cc(C(=O)O)nc3c2c(C2CCC2)nn3-c2ccccc2)CC1 [compound 428]
380

What do we get for COCCN(C)c1ccc(-c2cc(C(=O)O)nc3c2c(C(C)C)nn3-c2cccc(N3CCC3)c2)cn1 [compound 239] ?
713

* * *

So I've got a bunch of molecules here, and I need their EC50 values.
Molecular target: ΔF508-CFTR (Homo sapiens, UniProt P13569, DEL508-508)
Construct: host or cells: CFBE41o-, doxycycline-inducible
Assay: CFTR cell surface levels using HRP-tagged ΔF508-CFTR expressing CFBE cells, in the presence of a co-corrector
Assay type: cell-based
Conditions: HRP-tagged ΔF508-CFTR expressing CFBE cells, in the presence of 3 μM co-corrector; read-out: EC50
From the text: Measuring CFTR Cell Surface Levels Using HRP-Tagged AF508-CFTR Expressing CFBE Cells The HRP-tagged AF508-CFTR cell assay measures the expression of CFTR-ΔF508 at the plasma membrane. […] When HRP-tagged AF508-CFTR is present at the plasma membrane, the HRP enzyme activity can be measured. The amount of CFTR-ΔF508 that can be rescued to the plasma membrane is correlated with the amount of functional enzyme that can be measured. […]
Response body: numeric value in nM, unit text excluded.

Which measured EC50 belongs to CO[C@H]1C[C@@H](c2nn(-c3ccccc3)c3nc(C(=O)O)cc(-c4ccc(N5CCC(C#N)CC5)nc4)c32)C1 , tested on ΔF508-CFTR (Homo sapiens, UniProt P13569, DEL508-508)?
723

And then CN1CCN(C(=O)C2CCN(c3cc(C(=O)O)nc4c3c(C3CCC3)nn4-c3ccccc3)CC2)CC1 , what is it?
1670

// same read-out, input: CN(C)CCOc1cc(C(=O)O)nc2c1c(C1CCC1)nn2-c1ccccc1
3010

What would you report for Cc1cccc(-n2nc(C(C)C)c3c(N4CCC5(CCOCC5)C4)cc(C(=O)O)nc32)c1 ?
853

// next record CN(C)Cc1nn(-c2ccccc2)c2nc(C(=O)O)cc(-c3ccc(N4CCOCC4)cc3)c12
3340

Follow-up item: CC(C)c1nn(-c2cccc(N3CC(O)C3)c2)c2nc(C(=O)O)cc(-c3ccc(N4CCOCC4)cc3)c12
901

Another: CC(O)CN1CCC(N2CCN(c3cc(C(=O)O)nc4c3c(C3CCC3)nn4-c3ccccc3)CC2)CC1 (stereo not shown)
1670

* * *

target: ΔF508-CFTR (Homo sapiens, UniProt P13569, DEL508-508); construct: host or cells: CFBE41o-, doxycycline-inducible; test: CFTR cell surface levels using HRP-tagged ΔF508-CFTR expressing CFBE cells, intrinsic corrector capacity; type: cell-based; settings: HRP-tagged ΔF508-CFTR expressing CFBE cells; intrinsic corrector capacity (no co-corrector); 33° C., 20 hours
PARAMETER: % Activation (%)
Answer in %, number only, no unit symbol.

Requested read-out: % Activation. Entry: COCC1CCN(c2cc(C(=O)O)nc3c2c(C2CCC2)nn3-c2ccccc2)CC1
298.75

Now consider CC(C)c1nn(-c2ccc(F)cc2)c2nc(C(=O)O)cc(N3CCCC(C(F)F)C3)c12 (centres unmarked) .
137.6

Next compound up: CC1(COc2cc(C(=O)O)nc3c2c(C2CCC2)nn3-c2ccccc2)CC1
136.15

And what about the compound CCN(CC)C1CCN(c2cc(C(=O)O)nc3c2c(C2CCC2)nn3-c2ccccc2)CC1 ?
182.7

Also CN1CCC[C@@H](Oc2cc(C(=O)O)nc3c2c(C2CCC2)nn3-c2ccccc2)C1 ?
32.84

Now this one: CCCCOC1CCN(c2cc(C(=O)O)nc3c2c(C(C)C)nn3-c2ccc(F)cc2)CC1
223.6

Entry O=C(O)c1cc(OCCN2CCCCCC2)c2c(C3CCC3)nn(-c3ccccc3)c2n1 please
95.84

Item: O=C(O)c1cc(N2CCOC(C(F)(F)F)C2)c2c(C3CCC3)nn(-c3ccccc3)c2n1 (centres unmarked)
99.54

Just for reference, patent US9796711B2 is where these values come from.
